Exercise: state measured hepatocyte CLint at 1 µM for each of the compounds provided.
# ASSAY_EXPLANATION: Hepatocyte stability, mouse
# Type: in vitro ADME, CD-1 mice
# DETAILS: male, CD-1, mouse, cryopreserved hepatocytes, read-out: CLint measured with hepatocytes, Mouse
Numbers only, in µL/min/1e6 cells.

{"COMPOUND": "O=C(NC1CN(Cc2cnn(Cc3ccc(Cl)cc3)c2)C1)c1cn(C2CC2)nn1", "MEASURE_NAME": "hepatocyte CLint at 1 µM", "RECORDED_RESULT": 10.9}

Now for the compound whose hepatocyte CLint at 1 µM we want.
Please report the recorded hepatocyte CLint at 1 µM for NC1CCC(S(=O)(=O)N2C3CCC2CC(NC(=O)c2cc(C4CC4)on2)C3)CC1 (centres unmarked) . 6.6
